- Test system: Staphylococcus aureus
- assaySummary: Antibacterial activity against Staphylococcus aureus MTCC 2901 after 24 hrs
measuredParameter: -log(1/MIC)

[a] O=C(Nc1ccc(O)cc1)c1c(O)ccc2ccccc12
[b] O=C(O)c1cn(C2CC2)c2cc(N3CCNCC3)c(F)cc2c1=O
Q: Sorting ascending by -log(1/MIC), which comes first: a or b ? Provide the label of your selected option as the answer.
Ans: a

###

- System: Staphylococcus aureus
- assaySummary: Antibacterial activity against Staphylococcus aureus MTCC 2901 after 24 hrs
measuredParameter: -log(1/MIC)

# molecule, targetEntity, -log(1/MIC)
records = [
    ("O=C(Nc1ccccc1O)c1cc([N+](=O)[O-])ccc1Cl", "Staphylococcus aureus", 1.26),
    ("O=C(Nc1ccccc1O)c1ccccc1O", "Staphylococcus aureus", 1.26),
    ("O=C(Nc1ccc(O)cc1)c1ccccc1O [OSALMID]", "Staphylococcus aureus", 1.26),
    ("O=C(Nc1ccccc1O)c1cccc(Cl)c1", "Staphylococcus aureus", 1.16),
    ("COc1cccc(C(=O)Nc2ccccc2O)c1[N+](=O)[O-]", "Staphylococcus aureus", 1.41),
    ("Cc1ccc(C(=O)Nc2ccccc2O)cc1", "Staphylococcus aureus", 1.16),
    ("O=C(Nc1ccccc1)c1c(O)ccc2ccccc12", "Staphylococcus aureus", 1.35),
    ("O=C(Nc1ccccc1)c1cc([N+](=O)[O-])ccc1Cl", "Staphylococcus aureus", 1.35),
    ("O=C(Nc1ccc(O)cc1)c1cccc(Cl)c1", "Staphylococcus aureus", 1.3),
    ("O=C(Nc1ccc(O)cc1)c1cc([N+](=O)[O-])ccc1Cl", "Staphylococcus aureus", 1.37),
    ("Cc1cccc(C(=O)Nc2ccccc2O)c1", "Staphylococcus aureus", 1.16),
]
